# Triple point temperature listing for each entry below
- Particulars: Crystal; DTA
Number in K, nothing else.

Some compounds with recorded Triple point temperature:
[[record]]
chemical_smiles = "OCC(F)(F)C(F)(F)C(F)(F)C(F)(F)C(F)(F)C(F)(F)C(F)(F)C(F)(F)F"
assay_result = 342.2

[[record]]
chemical_smiles = "OCC(F)(F)C(F)(F)C(F)(F)C(F)(F)C(F)(F)C(F)(F)C(F)(F)C(F)(F)C(F)(F)F"
assay_result = 358.5

[[record]]
chemical_smiles = "OCC(F)(F)C(F)(F)C(F)(F)C(F)(F)C(F)(F)C(F)(F)C(F)(F)C(F)(F)C(F)(F)C(F)(F)F"
assay_result = 374


Alright, here's another compound for you.
stdin: What does the record list as Triple point temperature for `OCC(F)(F)C(F)(F)C(F)(F)C(F)(F)C(F)(F)C(F)(F)C(F)(F)F` ?
stdout: 318.2

* * *

- Assay details: Molar enthalpy of transition or fusion
- Particulars: Crystal; DSC
// values below are reported Molar enthalpy of transition or fusion
Return type: number; implicit unit kcal/mol.

stdin: Please report the recorded Molar enthalpy of transition or fusion for `OCC(F)(F)C(F)(F)C(F)(F)C(F)(F)C(F)(F)C(F)(F)C(F)(F)C(F)(F)F` .
stdout: 3.97

stdin: Now consider `OCC(F)(F)C(F)(F)C(F)(F)C(F)(F)C(F)(F)C(F)(F)C(F)(F)C(F)(F)C(F)(F)C(F)(F)F` and answer again.
stdout: 5.35

stdin: Likewise for `OCC(F)(F)C(F)(F)C(F)(F)C(F)(F)C(F)(F)C(F)(F)C(F)(F)F` ?
stdout: 2.84

stdin: Thanks! And `OCC(F)(F)C(F)(F)C(F)(F)C(F)(F)C(F)(F)C(F)(F)C(F)(F)C(F)(F)C(F)(F)F` ?
stdout: 3.8
